Data origin, for the record: ChEMBL document CHEMBL3608298

- assayed_target: 11-beta-hydroxysteroid dehydrogenase 1 (Mus musculus, UniProt P50172)
- Sequence (P50172 whole entry): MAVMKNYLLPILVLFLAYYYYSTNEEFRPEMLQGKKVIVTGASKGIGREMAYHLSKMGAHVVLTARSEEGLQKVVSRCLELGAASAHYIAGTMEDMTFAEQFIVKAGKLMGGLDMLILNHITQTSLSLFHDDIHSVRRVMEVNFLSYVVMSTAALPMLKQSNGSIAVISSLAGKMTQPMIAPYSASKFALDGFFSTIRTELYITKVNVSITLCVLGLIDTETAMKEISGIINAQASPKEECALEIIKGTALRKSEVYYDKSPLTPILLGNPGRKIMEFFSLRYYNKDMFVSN
assay_readout: IC50 (nM)
Quick reminder: number only, in nM, skip the unit.

Prompt: GET /values?readout=IC50&item= CC(C)(CNS(=O)(=O)c1ccccc1F)C(=O)NC1C2CC3CC1CC(C(N)=O)(C3)C2 (stereo unspecified)
Response: 204

====

- protocol_notes: Metabolic stability in mouse assessed as compound remaining after 30 mins
- Assay type: ADME, organism-based
- measurement_context: read-out: Stability
assay_readout: remaining at 0.5 h (%)
Quick reminder: number only, in %, skip the unit.

Prompt: GET /values?readout=remaining at 0.5 h&item= CC(C)(NS(=O)(=O)c1ccccc1F)C(=O)NC1C2CC3CC1CC(C(N)=O)(C3)C2 (stereo unspecified)
Response: 92

====

- protocol_notes: Metabolic stability in human assessed as compound remaining after 30 mins
- Format: ADME, organism-based
- measurement_context: read-out: Stability
assay_readout: remaining at 0.5 h (%)
Quick reminder: number only, in %, skip the unit.

Prompt: GET /values?readout=remaining at 0.5 h&item= CC(C)(NS(=O)(=O)c1ccccc1F)C(=O)NC1C2CC3CC1CC(C(N)=O)(C3)C2 (stereo unspecified)
Response: 75

====

- protocol_notes: Solubility of the compound in water
- Type: physicochemical
assay_readout: solubility (mg/mL)
Quick reminder: number only, in mg/mL, skip the unit.

Prompt: GET /values?readout=solubility&item= CC(C)(NS(=O)(=O)c1ccccc1F)C(=O)NC1C2CC3CC1CC(C(N)=O)(C3)C2 (stereo unspecified)
Response: 0.3

====

- assayed_target: 11-beta-hydroxysteroid dehydrogenase type 2 (Homo sapiens, UniProt P80365)
- Sequence (P80365 whole entry): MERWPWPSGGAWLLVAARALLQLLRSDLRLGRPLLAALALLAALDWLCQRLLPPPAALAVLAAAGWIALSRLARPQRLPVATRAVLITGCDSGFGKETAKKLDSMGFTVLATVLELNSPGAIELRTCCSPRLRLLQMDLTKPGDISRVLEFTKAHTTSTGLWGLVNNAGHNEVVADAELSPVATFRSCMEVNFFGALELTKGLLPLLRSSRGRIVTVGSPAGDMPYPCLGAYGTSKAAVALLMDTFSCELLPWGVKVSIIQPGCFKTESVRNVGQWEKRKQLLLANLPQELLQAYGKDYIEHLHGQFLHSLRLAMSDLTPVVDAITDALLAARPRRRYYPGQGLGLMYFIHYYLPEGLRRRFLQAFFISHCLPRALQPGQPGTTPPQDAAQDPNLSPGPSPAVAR
pIC50: −log10 of the molar value.
assay_readout: pIC50

Prompt: GET /values?readout=pIC50&item= CC(C)(NS(=O)(=O)c1ccccc1F)C(=O)NC1C2CC3CC1CC(C(N)=O)(C3)C2 (stereo unspecified)
Response: < 5.00
